# Tested on: HT29
# measurement_setup: 72 h, relative to DMSO, 10 µM, Relative cell viability (%)
Counter-ions that a name gives are not always drawn.
// assign Met if Relative cell viability (%) falls strictly below 90%, else Not met (ties count as Not met)

| compound | label_value |
| --- | --- |
| CCOC(=O)C1=C(COCCN)NC(C)=C(C(=O)OC)C1c1ccccc1Cl (stereo not drawn) [Amlodipine besylate (Norvasc)] | Met |
| COc1cc(Nc2ncc(F)c(Nc3ccc4c(n3)N(COP(=O)(O)O)C(=O)C(C)(C)O4)n2)cc(OC)c1OC [Fostamatinib (R788)] | Met |
| N#CC[C@H](C1CCCC1)n1cc(-c2ncnc3[nH]ccc23)cn1 [S-Ruxolitinib (INCB018424)] | Not met |
| CCN(C)C(=O)Oc1cccc([C@H](C)N(C)C)c1 [Rivastigmine Tartrate] | Not met |
| CN1CCN(c2ccc3nc(-c4c(N)c5c(F)cccc5[nH]c4=O)[nH]c3c2)CC1 [Dovitinib (TKI258) Lactate] | Met |
| CC/C(=C(\c1ccccc1)c1ccc(OCCN(C)C)cc1)c1ccccc1 [Tamoxifen Citrate] | Met |
| COc1ccc2nc([S@@+]([O-])Cc3ncc(C)c(OC)c3C)[nH]c2c1 [Esomeprazole Sodium] | Not met |
| C[C@@H]1CCN(C(=O)CC#N)C[C@@H]1N(C)c1ncnc2[nH]ccc12 [Tofacitinib (CP-690550) Citrate] | Not met |
| N#CC[C@H](C1CCCC1)n1cc(-c2ncnc3[nH]ccc23)cn1 [Ruxolitinib (INCB018424)] | Met |
| O=C(O)Cc1ccccc1Nc1c(Cl)cccc1Cl [Diclofenac Diethylamine] | Met |
| COc1cc(Nc2ncc(F)c(Nc3ccc4c(n3)N(COP(=O)(O)O)C(=O)C(C)(C)O4)n2)cc(OC)c1OC [R788 (Fostamatinib) Disodium] | Not met |
| COc1ccccc1Oc1c(NS(=O)(=O)c2ccc(C(C)(C)C)cc2)nc(-c2ncccn2)nc1OCCO [Bosentan Hydrate] | Met |
| COc1cc2nc(N3CCN(C(=O)C4CCCO4)CC3)nc(N)c2cc1OC (stereo not drawn) [Terazosin HCl] | Not met |
| O=C(O)Cc1ccccc1Nc1c(Cl)cccc1Cl [Diclofenac Potassium] | Met |
| CC(C)NCC(O)COc1ccc(CCOCC2CC2)cc1 (stereo not drawn) [Betaxolol hydrochloride (Betoptic)] | Not met |
| COc1ccc(C[C@@H]2c3cc(OC)c(OC)cc3CC[N@+]2(C)CCC(=O)OCCCCCOC(=O)CC[N@@+]2(C)CCc3cc(OC)c(OC)cc3[C@H]2Cc2ccc(OC)c(OC)c2)cc1OC [Cisatracurium Besylate] | Not met |
